B1: H2-Kb / Ed8 (parent complex)
chain 1: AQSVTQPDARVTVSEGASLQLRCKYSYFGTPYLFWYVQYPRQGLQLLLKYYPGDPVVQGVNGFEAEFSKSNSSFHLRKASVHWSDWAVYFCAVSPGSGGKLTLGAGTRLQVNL
chain 2: DSGVVQSPRHIIKEKGGRSVLTCIPISGHSNVVWYQQTLGKELKFLIQHYEKVERDKGFLPSRFSVQQFDDYHSEMNMSALELEDSAMYFCASSPRASNYTFGSGTRLLVI
chain 3: not shown
chain 4: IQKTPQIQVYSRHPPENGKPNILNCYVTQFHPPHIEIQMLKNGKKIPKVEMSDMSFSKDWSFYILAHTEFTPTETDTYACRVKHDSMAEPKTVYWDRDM
chain 5: SIINFEKL

- Variants of: B1
- Method Notes: % of reporter cells activated (NFAT-GFP), raw; note: test concentration or dose not given here
Endpoint: ratio to parent

Mutation Name	ratio to parent
chain 5 I2G	1.3
chain 5 I3D	1.17
chain 5 L8R	1.24
chain 5 I3G	1.22
chain 5 I3H	1.4
